Below is a list of entries, each paired with its recorded glass transition temperature value.
Report the figure in °C without appending any unit label.

Example results:
- *c1c(C)cc(C)c(N2C(=O)c3cccc(Oc4c(C)cc(-c5cc(C)c(Oc6cccc7c6C(=O)N(*)C7=O)c(C)c5)cc4C)c3C2=O)c1C (repeat unit): 325.00
- *CCC(C)(C)CC(C)CNC(=O)CCCCC(=O)N* (repeat unit): 65.00
- *CC(*)C(=O)c1ccc(Br)cc1 (repeat unit): 101.50
- *CCCCCCCCCCC(c1ccc(O)cc1)C(*)c1ccc(O)cc1C (repeat unit): -4.00
- *O[Si](*)(C)CCCCCCCCCCC(F)(F)C(F)(F)C(F)(F)C(F)(F)C(F)(F)C(F)(F)C(F)(F)C(F)(F)F (repeat unit): -78.00

**Q:** Can you share its glass transition temperature? I mean this molecule: *OP(=O)(Oc1ccccc1)Oc1ccc(-c2ccc(*)cc2)cc1 (repeat unit)
**A:** 112.00

**Q:** Continue with *OC(COC(=O)c1ccc2cc(C(*)=O)ccc2c1)COc1ccc(/N=N/c2ccc(C#N)cc2)cc1 (repeat unit)
**A:** 138.00

**Q:** // next record *CCCCCCCCCCCCC(c1ccc(O)cc1)C(*)c1ccc(O)cc1C (repeat unit)
**A:** -1.00

**Q:** Subsequent entry: *Oc1ccc(NC(=O)c2cc(C(=O)Nc3ccc(Oc4ccc(C(c5ccc(*)cc5)(C(F)(F)F)C(F)(F)F)cc4)cc3)cc(C(C)(C)C)c2)cc1 (repeat unit)
**A:** 255.50

**Q:** Cool, now *O[Si](*)(C)CCCOc1ccc(C(=O)Oc2ccc(C#N)cc2)cc1 (repeat unit)
**A:** 57.00

**Q:** Next: *CC/C=C/C[Si](*)(C)c1ccccc1 (repeat unit)
**A:** -14.90

**Q:** What do you get for *c1ccc(Oc2cccc(N3C(=O)c4ccc(Oc5ccc6c(c5)C(=O)N(*)C6=O)cc4C3=O)c2)cc1 (repeat unit) ?
**A:** 232.00

**Q:** Field entry: *c1ccc(Oc2ccc(S(=O)(=O)c3ccc(Oc4ccc(N5C(=O)c6ccc([Si](C)(C)c7ccc8c(c7)C(=O)N(*)C8=O)cc6C5=O)cc4)cc3)cc2)cc1 (repeat unit)
**A:** 246.00

**Q:** And for *c1ccc(Oc2ccc(-c3ccc(Oc4ccc(-c5ncc(*)o5)cc4C(F)(F)F)cc3)cc2)c(C(F)(F)F)c1 (repeat unit) ?
**A:** 200.00

**Q:** // same read-out, input: *O[Si](c1ccccc1)(c1ccccc1)c1ccc([Si](*)(c2ccccc2)c2ccccc2)cc1 (repeat unit)
**A:** 130.00

**Q:** What do you get for *c1cc(CCOc2ccc(/N=N/c3ccc(C#N)cc3)cc2)c(*)s1 (repeat unit) ?
**A:** 73.00

**Q:** Can you check *c1ccc(-c2sc(-c3cc(SCCCC)c(*)s3)cc2SCCCC)cc1 (repeat unit) next?
**A:** 129.00

**Q:** Can you handle *c1ccc(-c2cnc3cc4ncc(*)nc4cc3n2)cc1 (repeat unit) next?
**A:** 392.00

**Q:** Again, but for *C(=O)c1ccc2c(c1)C(=O)N(c1ccc(Oc3ccccc3Oc3ccc(N4C(=O)c5ccc(*)cc5C4=O)cc3C(F)(F)F)c(C(F)(F)F)c1)C2=O (repeat unit)
**A:** 236.00

**Q:** Next molecule up: *c1ccc(Oc2ccc(Oc3ccc(N4C(=O)c5ccc(Oc6ccc(C7(c8ccc(Oc9ccc%10c(c9)C(=O)N(*)C%10=O)cc8)CCCCCCCCCCC7)cc6)cc5C4=O)cc3)c(C(C)(C)C)c2)cc1 (repeat unit)
**A:** 262.00
